- Experiment: NCI Yeast Anticancer Drug Screen. Data for the mec2-1 strain (AID 157)
- Particulars: S. cerevisiae mec2-1 strain, at 50.0 µM, active compounds read high
Compounds without any hit were thinned out: in the full panel of roughly 79,000, 15% have a hit. Calls of active or inactive are those of the source. No stated cut-off is given here; in the data, active means growth inhibition above about 70%; inactive means the rest.
// values below are reported growth inhibition

Example cases with answers are listed next.
molecule="CNCCC(C(=O)O)c1ccccc1 (stereo unspecified)" measured_metric="growth inhibition" obs_value="-7.25% (inactive)"
molecule="CCC1(CCBr)C(=O)NC(=Nc2ccccc2)NC1=O (stereo unspecified)" measured_metric="growth inhibition" obs_value="-5.8% (inactive)"
molecule="COc1cc(C2SCCCCCCCCCCSC(c3ccc(O)c(OC)c3)SCCCCCCCCCCS2)ccc1O (stereo unspecified)" measured_metric="growth inhibition" obs_value="-24.8% (inactive)"
molecule=COC(=O)c1cc([N+](=O)[O-])c(Br)s1 measured_metric="growth inhibition" obs_value="99.6% (active)"
molecule=Nc1ccc(O)c(N=Nc2ccc(S(N)(=O)=O)cc2)c1 measured_metric="growth inhibition" obs_value="0.1% (inactive)"

// growth inhibition lookup, key: O=C(/C(=C(/[O-])C(F)(F)F)[n+]1ccc2ccccc2c1)C(F)(F)F
-2.4% (inactive)

// growth inhibition lookup, key: O=C(Nc1cc([N+](=O)[O-])cc2c1[nH]c(=O)c1ccccc12)C(F)(F)F
-2.8% (inactive)

---

- Experiment: NCI Yeast Anticancer Drug Screen. Data for the rad50 strain (AID 155);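 further: 0% = growth of vehicle-only cultures of the same strain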
- Particulars: S. cerevisiae rad50 strain growth inhibition; at 50.0 µM; active compounds read high
This is part of a sample that, as a whole, favours compounds with a hit. Of some 79,000 tested, about 15% had one in any assay.
// values below are reported growth inhibition
Express it in %; write the number only.

// growth inhibition lookup, key: CC(C)(CC(=O)Nc1ccccc1)C(=O)O
-11.8

---

- Experiment: NCI Yeast Anticancer Drug Screen. Data for the cln2 rad14 strain (AID 165);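 further: 0% = growth equal to vehicle treated cultures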
- Particulars: S. cerevisiae cln2 rad14 strain, at 50.0 µM, active compounds read high
The panel holds about 79,000 compounds, 15% with a hit somewhere; the sample as a whole holds those more often. Activity calls are given as the source filed them. Cut-off read from the data, not from the text of the source: active = growth inhibition above about 70%; inactive = the rest.
// values below are reported growth inhibition

molecule="CC(=O)N(C(=O)CC(=O)N1N=C(c2ccccc2)C(N=Nc2ccccc2[N+](=O)[O-])C1=O)c1ccc(Cl)cc1 (centres undefined)" obs_value="-37% (inactive)"
molecule="O=c1oc2ccccc2c(O)c1C(c1ccc2c(c1)OCO2)N1CCOCC1 (centres undefined)" obs_value="25.7% (inactive)"
molecule=NC(=O)c1cn(Cc2ccccc2)c(=O)n1Cc1ccccc1 obs_value="9.45% (inactive)"
molecule="Cc1ccc2c(c1)C(C)CC2(C)C (centres undefined)" obs_value="3.65% (inactive)"
molecule=C/C(=C/c1c(C)[nH]c(=O)[nH]c1=O)C(=O)O obs_value="-29.8% (inactive)"

// growth inhibition lookup, key: O=[N+]([O-])c1ccc(N=Nc2c(O)c3ccccc3c3ccccc23)c([N+](=O)[O-])c1
25.9% (inactive)

// growth inhibition lookup, key: CN(C)NC1=C([N+](=O)[O-])C=NN(c2ccccc2)C1
19.4% (inactive)

// growth inhibition lookup, key: CC1=C(O[Si](C(C)C)(C(C)C)C(C)C)C2CC1(OS(=O)(=O)C(F)(F)F)[C@H]1C(=O)N(c3ccccc3)C(=O)[C@@H]21 (some centres undefined)
17.4% (inactive)

// growth inhibition lookup, key: CCN(CC)Cc1cc(N)cc(N=Nc2ccc3c(c2)c2ccccc2n3CC)c1O
27.7% (inactive)

// growth inhibition lookup, key: O=[N+]([O-])C1C2C=CC(C2)[C@H]1c1ccco1 (some centres undefined)
20.2% (inactive)

// growth inhibition lookup, key: O=C(N/N=C\c1ccc([N+](=O)[O-])cc1)Nc1cccc2ccccc12
-14.4% (inactive)

---

- Experiment: NCI Yeast Anticancer Drug Screen. Data for the cln2 rad14 strain (AID 165);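 further: 0% = growth equal to vehicle treated cultures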
- Particulars: S. cerevisiae cln2 rad14 strain, at 50.0 µM, active compounds read high
About 79,000 compounds went through this panel and 15% of them were active in at least one assay; those are over-represented in the sample as a whole. Calls of active or inactive are those of the source. Rule as the data show it: active = growth inhibition above about 70%; inactive = the rest.
Measured Metric: growth inhibition

compound=O=C(O)CCN1C(=S)CSC1=S measured_metric="growth inhibition" obs_value="8.9% (inactive)"
compound=NCCCn1cnc2c(N)ncnc21 measured_metric="growth inhibition" obs_value="-18.6% (inactive)"
compound=O=C(O)c1ncnn1-c1ccccc1 measured_metric="growth inhibition" obs_value="-5.95% (inactive)"

// growth inhibition lookup, key: COc1ccccc1CNCc1nc2ccccc2[nH]1
13.2% (inactive)

// growth inhibition lookup, key: O=C(NCN1CCOCC1)Nc1ccc(Cl)cc1
-22.3% (inactive)

// growth inhibition lookup, key: NC=O
-1.4% (inactive)

// growth inhibition lookup, key: CN(C)c1nc2nc[nH]c2c(=S)n1C
24.6% (inactive)

// growth inhibition lookup, key: O=C(O)C1CCCCC1C(=O)O.[NH-]C1CCC1.[NH2-].[Pt+2] (stereo not drawn)
99.3% (active)

// growth inhibition lookup, key: Nc1nnc2nc(CC(=O)c3cccc([N+](=O)[O-])c3)c(CC(=O)c3cccc([N+](=O)[O-])c3)nn12
18.2% (inactive)

// growth inhibition lookup, key: NC(=O)NC1CCCCCCC1
-7.45% (inactive)

// growth inhibition lookup, key: CCc1ccc(NC(=O)c2cc(OC)c(OC)c(OC)c2)cc1
-12.3% (inactive)

// growth inhibition lookup, key: O=C1CCC(=O)c2cc(Br)ccc2N1
13% (inactive)

// growth inhibition lookup, key: COc1cc(-c2ccc([NH2+][B-](F)(F)F)c(OC)c2)ccc1[NH2+][B-](F)(F)F
29.1% (inactive)

---

- Experiment: NCI Yeast Anticancer Drug Screen. Data for the mlh1 rad18 strain (AID 175)
- Particulars: S. cerevisiae mlh1 rad18 strain growth inhibition; at 50.0 µM; active compounds read high
- Experimental: Growth inhibition of yeast strains with defined genetic alterations is measured as a screen for potential anti-cancer activity. Selected strains with alterations in DNA damage repair or cell cycle control were exposed to compounds and growth inhibition was measured relative to vehicle treated controls. The strain used in this assay is mlh1 rad18
This is part of a sample that, as a whole, favours compounds with a hit. Of some 79,000 tested, about 15% had one in any assay.
Measured Metric: growth inhibition (%)
Express it in %; write the number only.

Example cases with answers are listed next.
compound=COc1c2c(c(OC)c(C(C)=O)c1OC(=O)c1ccccc1)CCO2 obs_value=15.6
compound=Cc1ccccc1C(N)=O obs_value=26.5
compound=CCOC(=O)/C(=C/c1ccc(N(CCC#N)CCC#N)cc1C)NC(=O)/C=C/c1ccccc1 obs_value=-9.65
compound=Cc1ccccc1S(=O)(=O)N1C(=O)c2ccccc2S1(=O)=O obs_value=-13.8
compound=C/C=C/C(=O)Nc1cc(Cl)ccc1C obs_value=5.55

// growth inhibition lookup, key: c1ccc(C23CCCCC2O3)cc1 (stereo unspecified)
4.85

// growth inhibition lookup, key: COc1ccc(C(c2c(O)c3ccccc3oc2=O)N2CCCC2)c(OC)c1 (stereo unspecified)
-3.3

---

- Experiment: NCI Yeast Anticancer Drug Screen. Data for the mec2-1 strain (AID 157)
- Particulars: S. cerevisiae mec2-1 strain, at 50.0 µM, active compounds read high
The panel holds about 79,000 compounds, 15% with a hit somewhere; the sample as a whole holds those more often.
// values below are reported growth inhibition
Express it in %; write the number only.

compound="CC(=O)OCC1OC(n2c(C)c(C(C)=O)c(-c3cccc4ccccc34)c(C#N)c2=S)C(OC(C)=O)C(OC(C)=O)C1OC(C)=O (centres undefined)" measured_metric="growth inhibition" obs_value=22.4

// growth inhibition lookup, key: CC(=O)Nc1cc(C)c(C)cc1NC(C)=O
-16.6

// growth inhibition lookup, key: O=[N+]([O-])c1ccc(N=CC2CCC=CO2)cc1 (centres undefined)
17.8

---

// values below are reported growth inhibition
- Experiment: NCI Yeast Anticancer Drug Screen. Data for the mlh1 rad18 strain (AID 175)
- Particulars: S. cerevisiae mlh1 rad18 strain growth inhibition; at 50.0 µM; active compounds read high
About 79,000 compounds went through this panel and 15% of them were active in at least one assay; those are over-represented in the sample as a whole.
Express it in %; write the number only.

compound="COc1ccc(C(C)(O)c2cc3ccccc3n2S(=O)(=O)c2ccccc2)cc1 (stereo unspecified)" uom=% obs_value=18.4
compound=O=C(O)c1ccc2c(Cl)ccc3c2c1CC3 uom=% obs_value=21.5
compound=CC1CC[N-]CC1.CC1CC[N-]CC1.[Cl][Pt+2][Cl] uom=% obs_value=5.8

// growth inhibition lookup, key: CC1(C)CC(=O)C(CC(C(=O)C(=O)Nc2cc(C(F)(F)F)ccc2Cl)C(=O)c2ccco2)C(=O)C1 (stereo unspecified)
19.1

// growth inhibition lookup, key: C/C(CCC1CCCCC1)=N/Nc1ccc([N+](=O)[O-])cc1[N+](=O)[O-]
5.55

// growth inhibition lookup, key: CC(=O)NC(Cc1cc(I)c(OC(C)=O)c(I)c1)C(=O)O (stereo unspecified)
-0.6

// growth inhibition lookup, key: CC(=O)C1C(=O)C(=O)N(c2ccc(F)cc2)C1=O (stereo unspecified)
-27.3

// growth inhibition lookup, key: CCCCC/C=C/C(CC)(C(=O)OCC)C(=O)OCC
6.1

// growth inhibition lookup, key: Cc1nn(C)c(=O)c(N)c1-c1cc(-c2ccc(Cl)cc2)n[nH]1
13.9

// growth inhibition lookup, key: C=C(C)CC1CC(=O)OC1=O (stereo unspecified)
4.35

// growth inhibition lookup, key: CCOC(=O)C1C2CC3C(CC21C)C3(C)C (stereo unspecified)
1

Entry source: PubChem BioAssay (NCI)
